Biological target: Mtb dihydrofolate reductase (DHFR) (Mycobacterium tuberculosis)
Construct: recombinant, 6-histidine tag at the amino terminus
Sequence (P9WNX1 1-161): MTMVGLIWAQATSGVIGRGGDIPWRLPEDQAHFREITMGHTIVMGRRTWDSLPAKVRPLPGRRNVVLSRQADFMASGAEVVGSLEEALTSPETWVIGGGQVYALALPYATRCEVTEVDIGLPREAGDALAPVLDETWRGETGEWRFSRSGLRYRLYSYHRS
assay-endpoint: IC50 (nM)
Your answer should be a plain number; it is taken to be in nM.

Query: State the recorded IC50 for this entry: Nc1nc(N)c2cc(C(F)(F)F)ccc2n1 [NC00094221]
Result: 22.4
